Tested on: MCF7
Method Notes: Decrease in estrogen receptor alpha level in human MCF7 cells after 4 hrs by in-cell western assay
Type: functional, cell-based
Conditions Used: MCF7, 4 h
pEC50: −log10 of the molar value.
Measured Endpoint: pEC50

Smiles Repr: O=C(O)/C=C/c1ccc(/C(=C(\c2ccccc2)C2CCCC2)c2ccc3[nH]ncc3c2)cc1
Measured Endpoint: pEC50
Val: 8.03

a: CCCC/C(=C(/c1ccc(/C=C/C(=O)O)cc1)c1ccc2[nH]ncc2c1)c1ccccc1
b: CC/C(=C(/c1ccc(/C=C/C(=O)O)cc1)c1cc(F)c2[nH]ncc2c1)c1ccccc1
Among a and b , which shows a numerically higher pEC50 result? // output: label of the selected item b
